# protocol-text: MM1S cell viability effects, profiling panel, calcein-AM fluorescence, 48 h, basal (AID 1165);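 further: viability of MM1S multiple myeloma cells under basal unstimulated conditions; test concentration not given here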
# study-conditions: higher = more signal
Classify as follows. Reported z-score greater than or equal to 0.2: rule met. Reported z-score below: rule not met.

molecule: C#CCCCON=C1C[C@@H](O)[C@@H](O)[C@@H]2[C@@H]3C(=O)N(C(C)(C)C)C(=O)[C@@H]3CC[C@@H]12
class-name: rule not met

Please check the record COC(=O)[C@@H]1CC[C@H](C)[C@@H](c2ccc(C)cc2)N1C(=O)c1ccc(C=NO[C@H](C)c2cn([C@@H]3COC[C@H]3O)nn2)cc1 and state if its z-score is at or above 0.2.
rule met

* * *

# protocol-text: basal MM1S mitochondrial membrane potential changes, profiling panel, cell-based, JC-1 fluorescence, 24 h, 100 nL compound (AID 1170); further: test concentration not given here
# study-conditions: higher = more signal
experimental-endpoint: z-score
Answers are plain numbers.

Worked cases, answers included:
molecular-string: CC(CCN1CCCCc2nc(C)c(C)cc21)=NO[C@H](C)c1cn([C@H](CO)Cc2ccccc2)nn1
z-score: -0.457
--
molecular-string: O=C1C[C@@H](O)[C@@H](O)[C@@H]2[C@@H]3C(=O)N(Cc4ccc5c(c4)OCO5)C(=O)[C@@H]3CC[C@H]12
z-score: 1.37
--
molecular-string: COC(=O)CC=C[C@@H](C)[C@@H](C=NOC[C@H]1O[C@H](c2ccccc2)C=C[C@@H]1Oc1ccc(OC)cc1)OC
z-score: -0.327

Lab note: next compound to report on.
The measured z-score associated with COc1ccc(O[C@@H]2[C@H](O)CO[C@@H]2C=Cc2ccccc2)cc1 reads 0.322

* * *

# target-of-assay: Torsin-1A (Homo sapiens)
# protocol-text: small-molecule binders of mutant TOR1A in lysate, primary screen, cell lysate, small-molecule microarray, COS7 lysate, 635/667 nm fluorescence (AID 1150);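 further: score pools 667 nm emission and signal to noise measuring lysate protein binding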
# study-conditions: COS7 hTOR1A mutant lysate, 635 nm fluorescence, higher = more signal
Please respond with reported composite z-score for every item in the list.
Give bare numbers.

compound: COc1ccc(COC(=O)NN=C2C[C@@H](O)[C@@H](O)[C@@H]3[C@@H]4C(=O)N(Cc5ccccc5)C(=O)[C@@H]4CC[C@H]23)cc1
composite z-score: -0.186
//
compound: CO[C@H]1COC(=O)CC=C[C@H](C)COC(=O)[C@@H](C)NC(=O)CC=C[C@@H]1C
composite z-score: 2.8
//
compound: C=CC[C@@H]1C=C[C@H](ON=C(C)CCC(=O)OC[C@H]2O[C@H](C#Cc3ccccc3)C=C[C@@H]2Oc2ccc(C)cc2)[C@@H](CO)O1
composite z-score: 0.185
//
compound: CO[C@H]1COC(=O)CC=C[C@@H](C)[C@H](OC)COC(=O)[C@@H]2CCCN2C(=O)CC=C[C@@H]1C
composite z-score: 2.49

Provide composite z-score values for the following items, in order.
1. C[C@@H](c1ccccc1)N1C(=O)[C@H]2[C@H]3[C@H](O)[C@H](O)CC(=NOCc4ccccc4)[C@H]3CC[C@H]2C1=O
2. CCOC(=O)[C@H](CC(C)C)NC(=O)CCC1CC(OC(=O)NCc2cccc3ccccc23)CC2(CCCC(COC(=O)NCCCN3CCCC3=O)O2)O1 (some centres undefined)
3. C#CCCCON=C1C[C@@H](O)[C@@H](O)[C@@H]2[C@@H]3C(=O)N(CCC(=O)OCC)C(=O)[C@@H]3CC[C@H]12
4. Cc1ccc(S(=O)(=O)N[C@H]2COC(=O)CC=C[C@@H](C)COC(=O)CC=C[C@@H]2C)cc1

1. 0.651
2. 0.299
3. 0.36
4. -0.534
